- targetOfAssay: TLR8 (Homo sapiens)
- Sequence (Q9NR97 27-1041): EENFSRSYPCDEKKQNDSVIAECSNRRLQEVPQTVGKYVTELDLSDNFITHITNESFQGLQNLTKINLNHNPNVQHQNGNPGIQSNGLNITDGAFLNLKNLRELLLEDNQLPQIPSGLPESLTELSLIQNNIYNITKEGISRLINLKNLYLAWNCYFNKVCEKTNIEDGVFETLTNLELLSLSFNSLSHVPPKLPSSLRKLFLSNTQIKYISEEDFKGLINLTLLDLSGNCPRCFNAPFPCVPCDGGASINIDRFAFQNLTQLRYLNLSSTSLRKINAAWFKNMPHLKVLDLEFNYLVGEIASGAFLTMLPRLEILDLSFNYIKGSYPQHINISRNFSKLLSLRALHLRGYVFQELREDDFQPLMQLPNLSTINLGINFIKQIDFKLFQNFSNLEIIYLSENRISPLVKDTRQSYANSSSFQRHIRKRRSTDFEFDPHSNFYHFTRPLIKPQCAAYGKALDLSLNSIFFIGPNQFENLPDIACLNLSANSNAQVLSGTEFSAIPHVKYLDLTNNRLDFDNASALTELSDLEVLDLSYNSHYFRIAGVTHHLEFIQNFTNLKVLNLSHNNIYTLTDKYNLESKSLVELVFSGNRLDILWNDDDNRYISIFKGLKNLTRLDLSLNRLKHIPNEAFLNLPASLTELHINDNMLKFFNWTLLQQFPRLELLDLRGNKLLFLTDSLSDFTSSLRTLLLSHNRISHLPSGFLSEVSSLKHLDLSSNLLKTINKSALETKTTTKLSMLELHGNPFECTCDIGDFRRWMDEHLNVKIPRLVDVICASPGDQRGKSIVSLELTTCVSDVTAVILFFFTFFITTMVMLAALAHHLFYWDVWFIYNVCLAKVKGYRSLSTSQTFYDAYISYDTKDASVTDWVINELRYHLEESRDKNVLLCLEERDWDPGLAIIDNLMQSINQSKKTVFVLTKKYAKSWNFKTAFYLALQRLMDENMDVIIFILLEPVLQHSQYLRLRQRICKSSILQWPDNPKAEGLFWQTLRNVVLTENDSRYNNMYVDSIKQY
- protocolDetails: NF-κB-luciferase reporter activation in HEK293-TLR8 cells, 10 μM IRM (Example 1)
- Assay type: cell-based
- Set-up: expressed in transfected cells; host or cells: HEK293 (ATCC CRL-1573), pIRES vector, G-418 selected, co-transfected with NFkB-luc reporter
- setupConditions: ratio of TLR8-transfected to vector-transfected cells
Binary classification by Fold Increase Over DMSO Control, HEK293-TLR8 / HEK293-vector, with 7 as an inclusive lower bound for 1.0; all other cases are 0.0.

Nc1nc2ccccc2c2c1ncn2CCOCC#Cc1ccncc1.O=C(O)C(F)(F)F.O=C(O)C(F)(F)F [IRM 8]
0.0

Task: Does the reported Fold Increase Over DMSO Control, HEK293-TLR8 / HEK293-vector for CCCCc1nc2c(N)nc3ccccc3c2n1CCNS(C)(=O)=O [IRM 9] fall at or above the 7 mark?
Output: 1.0

Task: Determine whether measured Fold Increase Over DMSO Control, HEK293-TLR8 / HEK293-vector meets or exceeds 7 for CCOCc1nc2c(N)nc3c(c2n1CC(C)(C)O)CCCC3 [IRM 1]
Output: 1.0

Task: Does the molecule CCCCNC(=O)NCCCCn1c(CCCC)nc2c(N)nc3cccnc3c21 [IRM 5] have recorded Fold Increase Over DMSO Control, HEK293-TLR8 / HEK293-vector that is 7 or more?
Output: 0.0

Task: Determine whether measured Fold Increase Over DMSO Control, HEK293-TLR8 / HEK293-vector meets or exceeds 7 for CCc1nc2c(N)nc3ccccc3c2n1CCCCS(=O)(=O)c1cc(Cl)cc(Cl)c1 [IRM 12]
Output: 0.0

Task: Determine whether measured Fold Increase Over DMSO Control, HEK293-TLR8 / HEK293-vector meets or exceeds 7 for CCCCc1nc2c(N)nc3ccccc3c2n1CC(C)(C)CNC(=O)c1ccccc1 [IRM 15]
Output: 0.0

Task: Could you tell me if the measured Fold Increase Over DMSO Control, HEK293-TLR8 / HEK293-vector of COCCc1nc2c(N)nc3ccccc3c2n1CCOCCNC(=O)Nc1ccccc1 [IRM 10] reaches 7 or more?
Output: 0.0

Task: API: above_or_equal(metric=Fold Increase Over DMSO Control, HEK293-TLR8 / HEK293-vector, cutoff=7) for item CCOCc1nc2c(N)nc3ccccc3c2n1CCOCCCOCc1ccccc1 [IRM 4]
Output: 0.0

Task: Does the molecule CCOCc1nc2c(N)nc3ccccc3c2n1CCCNC(=S)Nc1cccc(C#N)c1 [IRM 14] have recorded Fold Increase Over DMSO Control, HEK293-TLR8 / HEK293-vector that is 7 or more?
Output: 1.0

----------
Property: Fold increase over vehicle; scope: individual molecules
- targetOfAssay: TLR8 (Homo sapiens)
- protocolDetails: Dose dependent TLR8-mediated NF-κB-luciferase response in HEK293 cells transfected with TLR8 (Example 5)
- Assay type: cell-based
- Parameters: expressed in transfected cells; host or cells: HEK293 (ATCC CRL-1573), pIRES vector, G-418 selected, co-transfected with NFkB-luc reporter
- setupConditions: 10 μM
Please give a number only; it is taken to be in fold.

COCCc1nc2c(N)nc3c(c2n1CCOCCNC(=O)Nc1ccccc1)CCCC3 [IRM41]
12.7
COCCc1nc2c(N)nc3ccccc3c2n1CCCCNC(=O)c1cnc2ccccc2c1 [IRM37]
5.2
CCOCc1nc2c(N)nc3cc(-c4cccnc4)ccc3c2n1CC(C)(C)O [IRM51]
21.5
CCOCc1nc2c(N)nc3cc(-c4ccccc4)ccc3c2n1CC1CCNCC1 [IRM48]
8.2
CCCNC(=O)NC(C)(C)Cn1c(COCC)nc2c(N)nc3ccccc3c21 [IRM55]
7.2
CCOCc1nc2c(N)nc3cc(-c4cccnc4)ccc3c2n1CC(O)CO (stereo not shown) [IRM57]
10.4

Task: Which Fold increase over vehicle is listed for CCOCc1nc2c(N)nc3cc(-c4ccncc4)ccc3c2n1CC(C)(C)O [IRM56] ?
Output: 24.4

Task: Bench note: what Fold increase over vehicle did CCCCc1nc2c(N)nc3ccccc3c2n1CCS(C)(=O)=O [IRM45] show?
Output: 17.0

Task: Requested field: Fold increase over vehicle. Item: CCOCc1nc2c(N)nc3cc(-c4ccc(C(=O)N(C)OC)cc4)ccc3c2n1CC(C)(C)O [IRM61]
Output: 10.3

Task: Fold increase over vehicle lookup needed for CCOCC(=O)NC(C)(C)Cn1c(COCC)nc2c(N)nc3ccccc3c21 [IRM43] , thanks.
Output: 5.6
